Exercise: state measured growth for each of the molecules provided.
Tested on: NCI-H23 lung
Test: NCI-60 one-dose screen, 48 h (100 = growth as untreated, 0 = no growth, -100 = all killed)
Details: 10 µM unless noted
About 83,000 compounds went through this panel and 20% of them were active in at least one assay; those are over-represented in the sample as a whole.
One number for each entry, in %.

// known answers, use as guide
compound_smiles=FC(F)(F)c1cc(Nc2ccc3c(OCCCN4CCOCC4)cccc3n2)ccc1Cl measure_name=growth endpoint_value=60.8
compound_smiles=O=CN(SSN(C=O)C1CCCCC1)C1CCCCC1 measure_name=growth endpoint_value=115
compound_smiles=Nc1nc2ccccc2c2c(=O)c3cc(F)ccc3sc12 measure_name=growth endpoint_value=87.3
compound_smiles=O=C(Nc1ccc(-c2nc(-c3cccc(OCCN4CCOCC4)c3)c(-c3ccnc(Br)c3)[nH]2)cc1)c1ccccc1 measure_name=growth endpoint_value=13.3
compound_smiles=Cc1nn(-c2ccccc2)c2c1N=c1s/c(=C\c3ccc(C(F)(F)F)cc3)c(=O)n1CN2 measure_name=growth endpoint_value=51.1
compound_smiles=Cc1nn(-c2ccccc2)c(-n2ccnc2)c1/C=N/Nc1nc(-c2ccc(F)cc2)cs1 measure_name=growth endpoint_value=58.1
compound_smiles=COC(=O)c1ccc2[nH]c(O)c(C(=Nc3ccc(N(C)C(=O)CN4CCN(C)CC4)cc3)c3ccccc3)c2c1 measure_name=growth endpoint_value=31.1
compound_smiles=COc1ccc(C(=O)C[C@]2(O)C(=O)Nc3c(Cl)ccc(Cl)c32)cc1 measure_name=growth endpoint_value=44.3

Consider the record given below.
Send back NCI-H23 lung growth of O=C(O)c1cn(C2CC2)c2cc(N3CCN(C(=O)Nc4nc(-c5ccccc5)cs4)CC3)c(F)cc2c1=O only.
9.06

###

Test system: MALME-3M melanoma
Experiment: NCI-60 one-dose screen, 48 h
Settings: 10 µM unless noted
Compounds without any hit were thinned out: in the full panel of roughly 83,000, 20% have a hit. Active and inactive are the calls of the source. How the source made its calls: active means growth percent below 10; inactive means the rest.
Choose the fitting class; nothing outside Y = active, N = inactive is accepted.

molecule=C=C1CC[C@H](C(C)C)[C@@H]2[C@H]1[C@H]1CC(=C)[C@@H](O)CC[C@@](C)(O)[C@@H]2O1 assigned_label=N
molecule=CS(=O)(=O)N(c1cc(-c2ccc3ncnc(Nc4ccc(F)c(Cl)c4)c3c2)cnc1Cl)S(C)(=O)=O assigned_label=Y
molecule="NC1=NC(c2cccc(Br)c2)c2sc3ccc(Cl)cc3c2N1 (stereo not drawn)" assigned_label=N
molecule=Cc1nc2ccccc2c(/C=C/c2ccc(Cl)cc2)c1C(=O)/C=C/c1cccs1 assigned_label=N

Name the outcome recorded for COc1ccc(-c2c(C(=O)NS(C)(=O)=O)n(Cc3cccc(C(F)(F)F)c3)c3ccccc23)cc1 in the assay.
N

Name the outcome recorded for O=C(/C=C/c1cccc2ccccc12)c1ccc(NC(=O)c2ccccc2CN2C(=O)c3ccccc3C2=O)cc1 in the assay.
N

Name the outcome recorded for O=C(N/N=C/[C@H](O)[C@H](O)[C@H](O)CO)c1ccc(NC(=O)c2cccnc2)cc1 in the assay.
N

Name the outcome recorded for COc1cccc(Oc2ccccc2NC(=O)CNC(=O)c2cccc3ccccc23)c1 in the assay.
N

Name the outcome recorded for CCc1ccccc1-n1c(N)c(C#N)c(-c2ccc(Cl)cc2)c(C#N)c1=O in the assay.
N

###

Exercise: state measured growth for each of the molecules provided.
Test system: SK-OV-3 ovarian
Test: NCI-60 one-dose screen, 48 h (100 = growth as untreated, 0 = no growth, -100 = all killed)
Settings: 10 µM unless noted
About 83,000 compounds went through this panel and 20% of them were active in at least one assay; those are over-represented in the sample as a whole.
One number for each entry, in %.

// known answers, use as guide
molecule=COc1c(B(O)O)cc(C)cc1-c1nc2ccc3[nH]ncc3c2c2c1CCCC2 endpoint_value=63.5
molecule="COC1=C(C)C(=O)c2c(c(CCCl)c3n2CCC3OC(C)=O)C1=O (stereo not given)" endpoint_value=-21.6
molecule=Cc1cc2[nH]c(=O)c3c4ncccc4cn3c2cc1C endpoint_value=87.4
molecule=C#C[C@]1(O)CC[C@H]2[C@@H]3CC=C4c5sc(Nc6cc(F)ccc6F)nc5CC[C@]4(C)[C@H]3CC[C@@]21C endpoint_value=-1.09
molecule=Cc1cc2nc3cc(C)c(N)cc3[n+](-c3ccccc3)c2cc1N endpoint_value=91.3
molecule=Nc1cc2c(cc1Br)-c1cc(Cl)ccc1C2=O endpoint_value=98.7

Could you tell me growth for each of these molecules? They are listed below.
1. Cc1ccc(C(=O)NN2C(=O)CSC2c2cccc([N+](=O)[O-])c2)cn1 (stereo not given)
2. CCCCn1c(=O)c(-c2cc(-c3ccc(Cl)cc3)nc(-c3ccc(Cl)cc3)c2)cc2cc(Cl)ccc21
3. CCOC(=O)c1cnn2c3ccccc3n(S(=O)(=O)c3ccc(OC)cc3)c12
4. CN(C)CCN1CCN(c2ncccc2C2Nc3ccccc3-n3cccc32)CC1 (stereo not given)

1. 114
2. 102
3. 48.2
4. 107

// provenance: PubChem BioAssay (NCI)
